- ASSAY_NOTES: self-splicing fitness, log relative to wild type (ln ratio); higher = more splicing; Tetrahymena group I intron in knt gene, E. coli kanamycin selection, DiMSum; sequences stand for … in CUCUCU…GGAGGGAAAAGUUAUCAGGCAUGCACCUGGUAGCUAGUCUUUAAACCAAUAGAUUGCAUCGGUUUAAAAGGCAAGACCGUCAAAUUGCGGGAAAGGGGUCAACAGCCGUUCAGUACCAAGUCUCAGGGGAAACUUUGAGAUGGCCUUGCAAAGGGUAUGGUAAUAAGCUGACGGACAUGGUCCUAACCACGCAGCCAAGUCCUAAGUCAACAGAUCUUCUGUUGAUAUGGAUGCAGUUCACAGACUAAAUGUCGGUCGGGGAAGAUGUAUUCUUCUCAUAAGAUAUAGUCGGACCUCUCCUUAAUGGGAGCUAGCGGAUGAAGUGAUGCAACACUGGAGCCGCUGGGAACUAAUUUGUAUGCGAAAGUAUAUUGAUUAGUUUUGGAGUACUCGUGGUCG;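 further: selection with 25 µg/mL kanamycin versus none on LB agar overnight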
- CONDITION_DESCRIPTION: 30 °C
REPORTED_PROPERTY: self-splicing fitness (ln)
I only need the number, thanks.

INSERT INTO assay_data (seq_text, reported) VALUES
  ('UUUAAGCAAUAUUACGCGAG', -0.722);

Return value of self-splicing fitness (ln) for input `CCUAAGCAAUAUUACGUUAG` , no commentary.
-1.95

Return value of self-splicing fitness (ln) for input `AUAAAGCAAUAUUACGGGCC` , no commentary.
-2.21

Return value of self-splicing fitness (ln) for input `CGUUAGCAAUAUUACGCACA` , no commentary.
-1.33

Return value of self-splicing fitness (ln) for input `GUGAAGCAAUAUUACGCAAC` , no commentary.
-2.59

Return value of self-splicing fitness (ln) for input `CCAAAGCAAUAUUACGAAUC` , no commentary.
-2.82

Return value of self-splicing fitness (ln) for input `UAUAAGCAAUAUUACGGGCC` , no commentary.
-2.99

Return value of self-splicing fitness (ln) for input `AUUGAGCAAUAUUACGGGUU` , no commentary.
-3.92

---

- ASSAY_NOTES: self-splicing fitness, log relative to wild type (ln ratio); higher = more splicing; Tetrahymena group I intron in knt gene, E. coli kanamycin selection, DiMSum; sequences stand for … in CUCUCU…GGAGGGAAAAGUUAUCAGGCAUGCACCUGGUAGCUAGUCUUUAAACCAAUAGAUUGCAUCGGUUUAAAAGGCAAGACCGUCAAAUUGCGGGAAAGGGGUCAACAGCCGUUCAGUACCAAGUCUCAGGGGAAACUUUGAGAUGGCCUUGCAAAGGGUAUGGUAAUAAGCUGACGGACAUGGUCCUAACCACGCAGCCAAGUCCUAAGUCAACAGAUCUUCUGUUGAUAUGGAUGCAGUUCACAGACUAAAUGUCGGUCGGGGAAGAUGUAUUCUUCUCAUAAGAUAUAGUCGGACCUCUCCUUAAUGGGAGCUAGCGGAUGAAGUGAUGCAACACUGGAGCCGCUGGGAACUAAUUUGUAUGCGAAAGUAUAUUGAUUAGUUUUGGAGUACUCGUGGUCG
- CONDITION_DESCRIPTION: 37 °C
REPORTED_PROPERTY: self-splicing fitness (ln)
I only need the number, thanks.

Reference set (5 entries):
INSERT INTO assay_data (seq_text, reported_property, reported) VALUES
  ('UCACAGCAAUAUUACGACAG', 'self-splicing fitness (ln)', -1.47),
  ('UAAGAGCAAUAUUACGAAGG', 'self-splicing fitness (ln)', -1.81),
  ('UCCUAGCAAUAUUACGGCCU', 'self-splicing fitness (ln)', -2.29),
  ('GGUGAGCAAUAUUACGUCCA', 'self-splicing fitness (ln)', -2.07),
  ('AGGGAGCAAUAUUACGAGUG', 'self-splicing fitness (ln)', -2.37);

Return value of self-splicing fitness (ln) for input `CUUGAGCAAUAUUACGGCAG` , no commentary.
-0.0287

Return value of self-splicing fitness (ln) for input `CCUCAGCAAUAUUACGAAAA` , no commentary.
-2.26

Return value of self-splicing fitness (ln) for input `AGUGAGCAAUAUUACGCGUA` , no commentary.
-1.48
